The measured values listed here are drawn from patent US10253002B2.

Consider the following molecules and their measured MIC (μg/ml) at 24 hours, VRE 2 readings.
- Tested on: VRE
- METHOD: Broth microdilution MIC, Example 7 (NCL812 and analogues)
- Type: cell-based, Enterococcus spp.
- EXPERIMENTAL SETUP: isolate VRE 2; 24 hours; 1st and 2nd replicate rows
- Protocol: Minimum inhibitory concentrations (μg/ml) were determined using the broth microdilution method recommended by the Clinical and Laboratory Standards Institute (CLSI). MIC breakpoints were determined by visual assessment and then confirmed using an ELISA plate reader, measuring absorbance levels at 600 nm. […] The purity of the isolates was closely monitored during testing by subculturing the prepared bacterial inoculum onto SBA (sheep blood agar). […]

Take a look at these entries with their results.
{"MOLECULE": "N#Cc1cccc(/C=N/NC(=S)N/N=C/c2cccc(C#N)c2)c1 [NCL065]", "STUDY SYSTEM": "VRE", "EXPERIMENTAL ENDPOINT": "MIC (μg/ml) at 24 hours, VRE 2", "RESULT": ">128 µg/mL"}
{"MOLECULE": "N#Cc1ccccc1/C=N/NC(=O)N/N=C/c1ccccc1C#N [NCL008]", "STUDY SYSTEM": "VRE", "EXPERIMENTAL ENDPOINT": "MIC (μg/ml) at 24 hours, VRE 2", "RESULT": ">128 µg/mL"}
{"MOLECULE": "C/C(=N\\NC(=N)N/N=C/c1ccc(C(F)(F)F)cc1)c1ccc(Cl)cc1.Cl [NCL068]", "STUDY SYSTEM": "VRE", "EXPERIMENTAL ENDPOINT": "MIC (μg/ml) at 24 hours, VRE 2", "RESULT": ">128 µg/mL"}
{"MOLECULE": "Cc1ccccc1/C=N/NC(=N)N.Cl [NCL045]", "STUDY SYSTEM": "VRE", "EXPERIMENTAL ENDPOINT": "MIC (μg/ml) at 24 hours, VRE 2", "RESULT": ">128 µg/mL"}
{"MOLECULE": "NC(=O)N/N=C/c1ccc(F)cc1 [NCL056]", "STUDY SYSTEM": "VRE", "EXPERIMENTAL ENDPOINT": "MIC (μg/ml) at 24 hours, VRE 2", "RESULT": ">128 µg/mL"}
{"MOLECULE": "Cl.N=C(N)N/N=C/c1ccccc1C(F)(F)F [NCL042]", "STUDY SYSTEM": "VRE", "EXPERIMENTAL ENDPOINT": "MIC (μg/ml) at 24 hours, VRE 2", "RESULT": ">128 µg/mL"}
{"MOLECULE": "Cl.N#Cc1ccccc1C=NNC(=N)NN=Cc1ccccc1C#N [NCL025]", "STUDY SYSTEM": "VRE", "EXPERIMENTAL ENDPOINT": "MIC (μg/ml) at 24 hours, VRE 2", "RESULT": ">128 µg/mL"}
{"MOLECULE": "Fc1cccc(/C=N/NC(=S)N/N=C/c2cccc(F)c2)c1 [NCL066]", "STUDY SYSTEM": "VRE", "EXPERIMENTAL ENDPOINT": "MIC (μg/ml) at 24 hours, VRE 2", "RESULT": ">128 µg/mL"}
{"MOLECULE": "COc1ccccc1/C=N/NC(=N)N.Cl [NCL034]", "STUDY SYSTEM": "VRE", "EXPERIMENTAL ENDPOINT": "MIC (μg/ml) at 24 hours, VRE 2", "RESULT": ">128 µg/mL"}
{"MOLECULE": "Cl.N=C(N)NN=Cc1ccc(F)cc1 [NCL053]", "STUDY SYSTEM": "VRE", "EXPERIMENTAL ENDPOINT": "MIC (μg/ml) at 24 hours, VRE 2", "RESULT": ">128 µg/mL"}

[in] Form entry - test system: VRE; read-out: MIC (μg/ml) at 24 hours, VRE 2; molecule: NC(=O)N/N=C/c1ccccc1Cl [NCL047]
[out] >128 µg/mL

[in] Record Cl.N=C(NN=Cc1ccccc1F)NN=Cc1ccccc1F [NCL022] : what is its MIC (μg/ml) at 24 hours, VRE 2 with VRE?
[out] >128 µg/mL

====

- Test system: VRE
- METHOD: Broth microdilution MIC, Example 7 (NCL812 and analogues)
- Type: cell-based, Enterococcus spp.
- EXPERIMENTAL SETUP: Enterococcus, VRE, 24 h, read-out: MIC (μg/ml) at 24 hours VRE 2, VRE 2, 24 hours
- Method: Minimum inhibitory concentrations (μg/ml) were determined using the broth microdilution method recommended by the Clinical and Laboratory Standards Institute (CLSI). MIC breakpoints were determined by visual assessment and then confirmed using an ELISA plate reader, measuring absorbance levels at 600 nm. […] The purity of the isolates was closely monitored during testing by subculturing the prepared bacterial inoculum onto SBA (sheep blood agar). […]
EXPERIMENTAL ENDPOINT: MIC (µg/mL)
Form entry: value (µg/mL) — number only.

{"SMILES INPUT": "Nc1nc(N/N=C/c2ccc(C(F)(F)F)cc2)cc(N/N=C/c2ccc(C(F)(F)F)cc2)n1", "STUDY SYSTEM": "VRE", "MIC (µg/mL)": 64}
{"SMILES INPUT": "C/C(=N\\NC(=N)N/N=C(\\C)c1ccc(C)cc1)c1ccc(C)cc1.Cl", "STUDY SYSTEM": "VRE", "MIC (µg/mL)": 4}
{"SMILES INPUT": "C/C(=N\\NC(=N)N/N=C(\\C)c1ccc(C(C)(C)C)cc1)c1ccc(C(C)(C)C)cc1.Cl", "STUDY SYSTEM": "VRE", "MIC (µg/mL)": 16}
{"SMILES INPUT": "Nc1nc(N/N=C/c2ccc(Br)cc2)cc(N/N=C/c2ccc(Br)cc2)n1", "STUDY SYSTEM": "VRE", "MIC (µg/mL)": 4}
{"SMILES INPUT": "Cc1ccc(/C=N/Nc2cc(N/N=C/c3ccc(C)cc3)nc(N)n2)cc1", "STUDY SYSTEM": "VRE", "MIC (µg/mL)": 2}

[in] For the compound shown here, Nc1nc(N/N=C/c2ccc(O)cc2)cc(N/N=C/c2ccc(O)cc2)n1 , give the reported MIC.
[out] 64

====

- Tested on: MRSA
- METHOD: Broth microdilution MIC, Example 7 (NCL812 and analogues)
- Type: cell-based, Staphylococcus aureus
- EXPERIMENTAL SETUP: Staphylococcus aureus, MRSA, 24 h, read-out: MIC (μg/ml) at 24 hours MRSA 1, MRSA 1, 24 hours
- Protocol: Minimum inhibitory concentrations (μg/ml) were determined using the broth microdilution method recommended by the Clinical and Laboratory Standards Institute (CLSI). MIC breakpoints were determined by visual assessment and then confirmed using an ELISA plate reader, measuring absorbance levels at 600 nm. […] The purity of the isolates was closely monitored during testing by subculturing the prepared bacterial inoculum onto SBA (sheep blood agar). […]
Entries and their MIC
Provide the reading as a plain figure in µg/mL.

# annotated cases, reported MIC shown
{"MOLECULE": "C/C(=N\\NC(=N)N/N=C(\\C)c1ccc(C(C)(C)C)cc1)c1ccc(C(C)(C)C)cc1.Cl [NCL219]", "EXPERIMENTAL ENDPOINT": "MIC", "MEASURED NUMBER": 2}
{"MOLECULE": "Nc1nc(N/N=C/c2ccc(Br)cc2)cc(N/N=C/c2ccc(Br)cc2)n1 [NCL193]", "EXPERIMENTAL ENDPOINT": "MIC", "MEASURED NUMBER": 2}

[in] I'd like to know its MIC. The molecule in question is Cc1ccc(/C=N/Nc2cc(N/N=C/c3ccc(C)cc3)nc(N)n2)cc1 [NCL195]
[out] 2

[in] Which value of MIC has been reported for C/C(=N\NC(=N)N/N=C(\C)c1ccc(C)cc1)c1ccc(C)cc1.Cl [NCL217] in the records?
[out] 4

[in] Entry under review: Nc1nc(N/N=C/c2ccccc2)cc(N/N=C/c2ccccc2)n1 [NCL199] . Reported MIC?
[out] 2

[in] Data request, read-out MIC, for Nc1nc(N/N=C/c2ccc(C(F)(F)F)cc2)cc(N/N=C/c2ccc(C(F)(F)F)cc2)n1 [NCL221]
[out] 4

[in] # lookup: MIC of Nc1nc(N/N=C/c2ccc(O)cc2)cc(N/N=C/c2ccc(O)cc2)n1 [NCL196]
[out] 32

[in] Look at this molecule and give its reported MIC. C/C(=N\Nc1cc(N/N=C(\C)c2ccc(Cl)cc2)nc(N)n1)c1ccc(Cl)cc1 [NCL204]
[out] 4

====

- Tested on: S. pneumoniae isolates
- METHOD: Disk diffusion susceptibility (CLSI/EUCAST), Example 5
- Type: cell-based, Streptococcus pneumoniae
- EXPERIMENTAL SETUP: WCH92
EXPERIMENTAL ENDPOINT: disk diffusion zone diameter (mm)
Respond with the bare value in mm.

{"SMILES INPUT": "Cc1onc(-c2ccccc2)c1C(=O)N[C@@H]1C(=O)N2[C@@H]1SC(C)(C)[C@@H]2C(=O)O", "MEASURED NUMBER": 25}
{"SMILES INPUT": "CN(C)[C@@H]1C(O)=C(C(N)=O)C(=O)[C@@]2(O)C(O)=C3C(=O)c4c(O)cccc4[C@@](C)(O)[C@H]3C[C@@H]12", "MEASURED NUMBER": 29}
{"SMILES INPUT": "CN[C@H](CC(C)C)C(=O)N[C@H]1C(=O)N[C@@H](CC(N)=O)C(=O)N[C@H]2C(=O)N[C@H]3C(=O)N[C@H](C(=O)N[C@H](C(=O)O)c4cc(O)cc(O)c4-c4cc3ccc4O)[C@H](O)c3ccc(c(Cl)c3)Oc3cc2cc(c3O[C@@H]2O[C@H](CO)[C@@H](O)[C@H](O)[C@H]2O[C@H]2C[C@](C)(N)[C@H](O)[C@H](C)O2)Oc2ccc(cc2Cl)[C@H]1O", "MEASURED NUMBER": 22}

Please examine the following record next.
[in] Record CC[C@H]1OC(=O)[C@H](C)[C@@H](O[C@H]2C[C@@](C)(OC)[C@@H](O)[C@H](C)O2)[C@H](C)[C@@H](O[C@@H]2O[C@H](C)C[C@H](N(C)C)[C@H]2O)[C@](C)(OC)C[C@@H](C)C(=O)[C@H](C)[C@@H](O)[C@]1(C)O : what is its disk diffusion zone diameter with S. pneumoniae isolates?
[out] 27
